These data points were gathered from patent US7902252B2.

Test system: D-serine levels in the cerebellum
protocol_notes: In vivo elevation of D-serine levels in the cerebellum;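 also: Cutoffs are cerebellum D-serine in nmol/g wet tissue weight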
Parameters: species or system Mice (C57BL/6)
measurement_conditions: mice, intraperitoneal, dose 30 mg/kg, 2 hours
recorded_metric: Cerebellum D-serine at 2 hours

O=C(O)c1cc2c([nH]1)CCC2Cc1ccc(F)c(F)c1 (single isomer, unassigned); (+) (2.5-4.9 = (+))
O=C(O)c1cc2c([nH]1)CC1CC21 (single isomer, unassigned); (++) (>5 = (++))
O=C(O)c1cc2c([nH]1)CCC2Cc1ccc(F)c(Cl)c1 (single isomer, unassigned); (++) (>5 = (++))
O=C(O)c1cc2c([nH]1)CCC2c1cc(F)cc(F)c1 (single isomer, unassigned); (+) (2.5-4.9 = (+))

* * *

experimental_system: Human DAAO (Homo sapiens, UniProt P14920)
Sequence (P14920 whole entry): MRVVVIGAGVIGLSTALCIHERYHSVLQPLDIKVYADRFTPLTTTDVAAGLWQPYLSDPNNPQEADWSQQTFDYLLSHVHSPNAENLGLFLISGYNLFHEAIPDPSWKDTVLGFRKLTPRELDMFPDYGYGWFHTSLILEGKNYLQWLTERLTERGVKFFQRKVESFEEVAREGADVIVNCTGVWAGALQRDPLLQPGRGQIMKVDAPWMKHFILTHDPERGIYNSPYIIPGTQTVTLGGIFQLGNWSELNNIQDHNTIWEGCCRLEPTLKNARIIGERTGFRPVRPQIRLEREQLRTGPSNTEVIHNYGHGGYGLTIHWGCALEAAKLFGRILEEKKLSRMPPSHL
protocol_notes: D-Amino Acid Oxidase enzyme assay (D-serine, horseradish peroxidase/Amplex Red coupled fluorescence)
Type: biochemical
measurement_conditions: D-serine 5 mM, pH 7.4
Protocol: DAAO enzyme activity was measured using the substrate D-serine at its Michaelis-Menton Km of 5 mM. The rate of oxidation is measured as a rate of production of hydrogen peroxide, which was detected using the enzyme horseradish peroxidase (Sigma cat. No. P-8375). […] The reactions were initiated by addition of DAAO enzyme and the fluorescence was monitored. […] Inhibition curves were generated in the presence of varying concentrations of the inhibitor and IC50 values were calculated for each inhibitor.
recorded_metric: IC50

Example entries and their recorded answers appear below.
O=C(O)c1cc2c([nH]1)CCC2c1cccc(F)c1 (single isomer, unassigned) [Compound 95]; ≤ 100 µM
Cc1ccc(CC2CCc3[nH]c(C(=O)O)cc32)cc1C (stereo not shown) [Compound 71]; ≤ 1 µM
COc1cccc(CC2CCc3cc(C(=O)O)[nH]c32)c1 (single isomer, unassigned) [Compound 130]; ≤ 100 µM
O=C(O)c1cc2c([nH]1)CCCC2Cc1ccccc1 (stereo not shown) [Compound 32]; ≤ 100 µM
COc1cccc(CC2CCc3cc(C(=O)O)[nH]c32)c1 (single isomer, unassigned) [Compound 131]; ≤ 0.1 µM

query: Name the reported IC50 value associated with the molecule O=C(O)c1cc2c([nH]1)CCC2Cc1cccc(C2CC2)c1 (stereo not shown) [Compound 73]
result: ≤ 0.1 µM

query: Again, but for NC(=O)c1cccc(CC2CCc3[nH]c(C(=O)O)cc32)c1 (stereo not shown) [Compound 77]
result: ≤ 1 µM

query: Also O=C(O)c1cc2c([nH]1)C(CCCc1ccccc1)CC2 (single isomer, unassigned) [Compound 135] , if possible.
result: ≤ 100 µM

query: // query: O=C(O)c1cc2c([nH]1)CCC2CCCc1ccccc1 (stereo not shown) [Compound 36]
result: ≤ 1 µM

query: Record: O=C(O)c1cc2c([nH]1)C(CCc1cccc3ccccc13)CC2 (stereo not shown) [Compound 132]
result: ≤ 1 µM

query: Input Cc1cc(F)ccc1CC1CCc2[nH]c(C(=O)O)cc21 (single isomer, unassigned) [Compound 52]
result: ≤ 100 µM

query: Query Cc1ccc(C2CCc3cc(C(=O)O)[nH]c32)cc1 (stereo not shown) [Compound 116] next
result: ≤ 1 µM

query: What about this molecule? O=C(O)c1cc2c([nH]1)CC1CC21 (single isomer, unassigned) [Compound 140]
result: ≤ 0.1 µM

query: Please answer likewise for O=C(O)c1cc2c([nH]1)CCC2CCc1ccccc1 (racemic) [Compound 18]
result: ≤ 1 µM

query: Moving on to O=C(O)c1cc2c([nH]1)C(c1cccc(F)c1)CC2 (stereo not shown) [Compound 111]
result: ≤ 1 µM

query: Now the same for O=C(O)c1cc2c([nH]1)CCC2Cc1ccc(Cl)cc1 (racemic) [Compound 14]
result: ≤ 0.1 µM

query: Input O=C(O)c1cc2c([nH]1)C(c1ccc(-c3ccccc3)cc1)CC2 (racemic) [Compound 118]
result: ≤ 1 µM

query: Same again, this time with CC(C)(CC1CCc2[nH]c(C(=O)O)cc21)c1ccccc1 (stereo not shown) [Compound 35]
result: ≤ 100 µM

query: Could you do the same for O=C(O)c1cc2c([nH]1)CCC2CCc1ccccc1 (single isomer, unassigned) [Compound 20] , please?
result: ≤ 100 µM

* * *

Entries and their IC50 values follow.
experimental_system: Human DAAO (Homo sapiens)
protocol_notes: D-Amino Acid Oxidase enzyme assay (D-serine, horseradish peroxidase/Amplex Red coupled fluorescence)
Type: biochemical
measurement_conditions: D-serine 5 mM, pH 7.4

Below, each entry is followed by its recorded IC50 result.
Cc1cc(C)cc(C2CCc3[nH]c(C(=O)O)cc32)c1 (centres unmarked); ≤ 100 µM
O=C(O)c1cc2c([nH]1)CCC2Cc1ccccc1 (centres unmarked); ≤ 0.1 µM
CCCC1CCc2[nH]c(C(=O)O)cc21 (single isomer, unassigned) [Compound 9]; ≤ 100 µM
O=C(O)c1cc2c([nH]1)CCCC2; ≤ 1 µM
O=C(O)c1cc2c([nH]1)C(c1cccc(Br)c1)CC2 (centres unmarked); ≤ 1 µM

query: Param item = O=C(O)c1cc2c([nH]1)C(Cc1cccc(Cl)c1)CC2 (single isomer, unassigned) [Compound 123] ; retrieve measured IC50.
result: ≤ 0.1 µM

query: For O=C(O)c1cc2c([nH]1)C(Cc1cccc(Br)c1)CC2 (single isomer, unassigned) [Compound 127] then?
result: ≤ 0.1 µM

query: And what about the compound O=C(O)c1cc2c([nH]1)CCC2Cc1ccc(Cl)c(Cl)c1 (racemic) [Compound 57] ?
result: ≤ 0.1 µM

query: Repeat with "Cc1c(C(=O)O)[nH]c2c1C(=O)CCC2"
result: ≤ 100 µM

query: Same lookup for O=C(O)c1cc2c([nH]1)C(Cc1cccc(Cl)c1)CC2 (racemic) [Compound 121] , please.
result: ≤ 0.1 µM

query: O=C(O)c1cc2c([nH]1)CC(Cc1ccccc1)C2 (centres unmarked) ?
result: ≤ 100 µM

query: Further, for O=C(O)c1cc2c([nH]1)CCC2Cc1ccc(F)cc1 (single isomer, unassigned) [Compound 41] ?
result: ≤ 1 µM

query: Try O=C(O)c1cc2c([nH]1)CCC2Cc1ccc(F)cc1F (single isomer, unassigned) [Compound 46] next.
result: ≤ 100 µM

query: Do the same for O=C(O)c1cc2c([nH]1)CCC2Cc1cccc(-c2ccco2)c1 (single isomer, unassigned) [Compound 88] please
result: ≤ 100 µM

query: And the next one, Cc1cc(F)ccc1CC1CCc2[nH]c(C(=O)O)cc21 (racemic) [Compound 51] ?
result: ≤ 0.1 µM

query: Continue with O=C(O)c1cc2c([nH]1)CCC2c1ccc(Cl)cc1 (centres unmarked)
result: ≤ 0.1 µM

query: Same question, O=C(O)c1cc2c([nH]1)CCC2NCc1ccc(Cl)cc1 (centres unmarked) this time
result: ≤ 100 µM

query: Subsequent entry: "O=C(O)c1cc2c([nH]1)CCC2"
result: ≤ 0.1 µM

query: Next compound: "O=C(O)c1cc2c([nH]1)CC/C2=C\c1ccc(F)cc1"
result: ≤ 100 µM

* * *

experimental_system: UniProtKB P14920
protocol_notes: D-Amino Acid Oxidase enzyme assay (D-serine, horseradish peroxidase/Amplex Red coupled fluorescence)
Assay type: biochemical
measurement_conditions: D-serine 5 mM, pH 7.4
recorded_metric: IC50

As a guide, the following entries are already answered.
O=C(O)c1cc2c([nH]1)CCC2Cc1cccc(Br)c1 (racemic) [Compound 63]; ≤ 0.1 µM
O=C(O)c1cc2c([nH]1)CCC2Cc1cccc(-c2ccco2)c1 (single isomer, unassigned) [Compound 89]; ≤ 0.1 µM
O=C(O)c1cc2c([nH]1)CCC2Cc1ccc(Br)cc1 (single isomer, unassigned) [Compound 62]; ≤ 0.1 µM
CCCC1CCc2[nH]c(C(=O)O)cc21 (racemic) [Compound 7]; ≤ 0.1 µM
O=C(O)c1cc2c([nH]1)C(CCc1ccccc1)CC2 (stereo not drawn) [Compound 27]; ≤ 1 µM

query: Can you look up the measured IC50 of CC1Cc2cc(C(=O)O)[nH]c2C1 (stereo not drawn) for me?
result: ≤ 1 µM

query: Check O=C(O)c1cc2c([nH]1)CCC2Cc1ccc(F)c(Cl)c1 (racemic) too.
result: ≤ 0.1 µM

query: Then this compound: CCCC1CCc2[nH]c(C(=O)O)cc21 (single isomer, unassigned) [Compound 8]
result: ≤ 0.1 µM

query: Similarly, O=C(O)c1cc2c([nH]1)C(Cc1cccc(Cl)c1)CC2 (single isomer, unassigned) [Compound 122] ?
result: ≤ 1 µM

query: // query: COc1cccc(CC2CCc3[nH]c(C(=O)O)cc32)c1 (single isomer, unassigned) [Compound 68]
result: ≤ 0.1 µM

query: Queued: "CC(C)(C)c1c(C(=O)O)[nH]c2c1C(=O)CC2"
result: > 100 µM

query: Queued: "O=C(O)c1cc2c([nH]1)C(=O)CC2"
result: ≤ 1 µM

query: // query: O=C(O)c1cc2c([nH]1)CCC2Cc1ccc(F)cc1F (single isomer, unassigned) [Compound 47]
result: ≤ 0.1 µM

query: Moving on to the next compound: O=C(O)c1cc2c([nH]1)CCC2Cc1cc(F)cc(Cl)c1 (stereo not drawn)
result: ≤ 0.1 µM

query: Param item: O=C(O)c1cc2c([nH]1)C(Cc1ccc(-c3ccccc3)cc1)CC2 (stereo not drawn)
result: ≤ 1 µM

query: Same lookup for O=C(O)c1cc2c([nH]1)C(c1ccc(Cl)cc1)CC2 (stereo not drawn) , please.
result: ≤ 1 µM

query: Here is the next compound: O=C(O)c1cc2c([nH]1)C(Cc1ccccc1)CC2 (stereo not drawn)
result: ≤ 0.1 µM

query: Entry O=C(O)c1cc2c([nH]1)C(Cc1cccc(Br)c1)CC2 (single isomer, unassigned) [Compound 126] please
result: ≤ 100 µM

query: What do you have for CC(C)C1CCc2[nH]c(C(=O)O)cc21 (stereo not drawn) ?
result: ≤ 1 µM

query: Same question, O=C(O)c1cc2c([nH]1)C(c1cccc(Cl)c1)CC2 (stereo not drawn) this time
result: ≤ 1 µM

query: Next compound: COc1ccc(CCC2CCc3[nH]c(C(=O)O)cc32)cc1 (stereo not drawn)
result: ≤ 100 µM

query: Lookup N#Cc1cccc(C2CCc3[nH]c(C(=O)O)cc32)c1 (stereo not drawn)
result: ≤ 0.1 µM
